Molecular target: human CD33 (human, UniProt P20138 18-364)
Sequence (P20138 18-364): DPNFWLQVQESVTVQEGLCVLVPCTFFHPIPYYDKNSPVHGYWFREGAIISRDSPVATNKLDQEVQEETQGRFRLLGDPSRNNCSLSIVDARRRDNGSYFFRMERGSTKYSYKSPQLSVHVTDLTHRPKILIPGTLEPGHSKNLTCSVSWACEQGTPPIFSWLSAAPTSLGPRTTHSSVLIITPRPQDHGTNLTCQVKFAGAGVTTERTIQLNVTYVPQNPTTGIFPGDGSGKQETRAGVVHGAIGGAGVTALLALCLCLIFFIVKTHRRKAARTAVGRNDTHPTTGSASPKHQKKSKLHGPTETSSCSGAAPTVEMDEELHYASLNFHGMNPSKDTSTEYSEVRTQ
Assay: cell-based or functional assay
endpoint.name: Percent CD33 Surface Expression, Macrophage % CD33 (%)
Numbers only here, please. The scale is %.

>  <binder>
C-34 (antibody, V domains shown, human IgG1) VH: EVQLVESGGGLVQPGGSLRLSCAASGFTFSSYWMSWVRQAPGKGLEWVANINQDGSEKYYVDSVKGRFTISRDNAKNSLYLQMNSLRAEDTAVYYCARDHGATGPDFDLWGRGTLVTVSS VL: DIQMTQSPSSLSASVGDRVTITCRASQSISSYLNWYQQKPGKAPKLLIYGASSLQSGVPSRFSGSGSGTDFTLTISSLQPEDFATYYCQQQYLTPLTFGGGTKVEIK

>  <unit.of.measurement>
%

>  <value.measured>
38

$$$$

Lab book: Percent CD33 Surface Expression, Macrophage % CD33 of C-12 (antibody, V domains shown, human IgG1) VH: EVQLLESGGGLVQPGGSLRLSCAASGFTFSNYAMSWVRQAPGKGLEWVSAISGSGGSTYYADSVKGRFTISRDNSKNTLYLQMNSLRAEDTAVYYCARDGSRYSYGLVAYGMDVWGQGTTVTVSS VL: EIVLTQSPGTLSLSPGERATLSCRASQSVSSSFLAWYQQKPGQAPRLLIYGASSRATGIPDRFSGSGSGTDFTLTISRLEPEDFAVYYCQQSQLRPTFGGGTKVEIK noted as 68.5
